Kindly state IC50 for each of the entries shown.
Biological target: Tumor necrosis factor (Homo sapiens)
Sequence (P01375 whole entry): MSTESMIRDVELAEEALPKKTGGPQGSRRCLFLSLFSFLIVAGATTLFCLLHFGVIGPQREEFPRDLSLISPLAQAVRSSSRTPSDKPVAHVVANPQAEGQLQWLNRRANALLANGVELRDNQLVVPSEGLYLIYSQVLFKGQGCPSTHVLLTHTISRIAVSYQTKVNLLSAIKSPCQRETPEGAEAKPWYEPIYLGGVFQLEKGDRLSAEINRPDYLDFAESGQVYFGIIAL
Assay: Inhibition of TNFalpha (unknown origin) assessed as IkappaB-alpha phosphorylation in Hela cells after 15 mins by ELISA
Type: cell-based
Respond with the bare value in µM.

Lookup: Which IC50 is listed for O=C1Sc2c(S(=O)(=O)Nc3ccc(O)cc3)cc(S(=O)(=O)Nc3ccc(O)cc3)c3cccc1c23 ?
Found: 25.3

Lookup: Moving on to the next compound: O=C1Nc2ccc(S(=O)(=O)Nc3ccc(O)c(Cl)c3)c3cccc1c23
Found: 45.7

* * *

Molecular target: Tumor necrosis factor (Homo sapiens)
Test: Inhibition of TNFalpha in HEK293T cells transfected with plasmid hRluc/TK/ luc2P/NF-kBRE/Hygro plasmid after 12 hrs by Dual-glo luciferase assay system
Format: cell-based, HEK-293T
Conditions: read-out: IC50
Value Kind: pIC50
By convention, pIC50 is the negative base-10 log of a molar concentration.

Lookup: Which pIC50 is listed for O=C1Nc2ccc(S(=O)(=O)Nc3ccc(O)c(Cl)c3)c3cccc1c23 ?
Found: 4.37

Lookup: Moving on to the next molecule: O=C1Sc2c(S(=O)(=O)Nc3ccc(O)cc3)cc(S(=O)(=O)Nc3ccc(O)cc3)c3cccc1c23
Found: 4.85
